Exercise: state measured TGI for each of the molecules provided.
tested on: DMS 114 small cell lung; test: NCI tumour cell line growth inhibition, 48 h

Please give measured TGI of the following entry: CC(=O)O[C@@]12CO[C@@H]1C[C@@H](O)[C@@]1(C)C(=O)[C@H](O)C3=C(C)[C@@H](OC(=O)[C@H](O)[C@@H](NC(=O)c4ccccc4)c4ccccc4)C[C@@](O)([C@@H](OC(=O)c4ccccc4)C12)C3(C)C (stereo partly specified)
22.8 µM

// Input: CC(C)(C)c1ccc(OCCOCCOc2ccc(C(C)(C)C)cc2S(=O)(=O)Nc2ccc([N+](=O)[O-])cc2)c(S(=O)(=O)Nc2ccc([N+](=O)[O-])cc2)c1 . Output its TGI only.
> 100 µM

Hello, please tell me recorded TGI for this one: CCCCCCCCCC(=O)OCC1OC(n2cc(F)c(=O)[nH]c2=O)C(NC(=O)OCc2ccccc2)C(OC(=O)CCCCCCCCC)C1O (stereo unspecified)
49.1 µM

Please report TGI for the following molecule: COc1ccc2oc(C(=O)O)c3c2c1CCC3CCC(=O)O (stereo unspecified)
> 100 µM

Could you please provide reported TGI for CN=C(N)c1ccc(N=C(N)c2ccc(C(N)=Nc3ccc(C(N)=NC)cc3)cc2)cc1 ? Thanks!
> 100 µM

Supply reported TGI belonging to this molecule: COc1ccc(NC(=O)C(C)Oc2ccc(OCC3CCCCC3)cc2)cc1 (stereo unspecified)
> 100 µM

Give TGI for the following molecule: CCCCNC(=O)C1C2CCC(O2)C1C(=O)O (stereo unspecified)
28.2 µM

Respond only with TGI recorded for Cc1[nH]c(=O)[nH]c1C(=O)c1ccc(-n2ccnc2)cc1
> 100 µM

State its TGI: C[N+](C)(C)CC(=O)N/N=C(\C(=O)NC1=C(Cl)C(=O)c2ccccc2C1=O)C(C#N)c1nc(-c2ccc([N+](=O)[O-])cc2)cs1 (stereo unspecified)
9.62 µM

Provide measured TGI value, entry: O=C(O/N=C1/CCC/C1=C\c1ccccc1)c1ccc(Cl)c(Cl)c1
> 100 µM

Given CC(=O)O[C@@]1(C)[C@@H](C)C(=O)O[C@@H]2CCN3CC=C(COC(=O)[C@]1(C)O)[C@H]23 , respond with its TGI.
> 100 µM

Answer with reported TGI of Cc1cccc(C(C)(C)C)c1NC(=O)CCc1nc(=S)[nH][nH]1
> 100 µM

Return reported TGI. Input molecule: CCOC(=O)C(CC/C=C\c1ccccc1)N1CCC[C@H]1C(=O)OC (stereo partly specified)
> 100 µM

Identify measured TGI associated with N#CC1(C#N)C2C=CC(c3coc4cccc2c34)C1(C#N)C#N (stereo unspecified)
9.98 µM

Please look at this molecule and report its TGI: C/C=C1\CN2CCc3c([nH]c4ccccc34)C2C=C1CCO (stereo unspecified)
> 340 µM

Name the recorded TGI of the item O=c1cc(-c2ccco2)[nH]c2cc3c(cc12)OCO3 in your answer.
> 100 µM
